Experiment: Pharmacokinetics of MEPB and TA in plasma and tissues after a single intraperitoneal injection
Format: in vivo, male FVB/NJ mice
Settings: male, FVB/NJ, mouse, ip; TA in liver; single intraperitoneal injection of 50 mg/kg TA
Method: MEPB and TA concentrations in plasma, liver, muscle, testes, brain, and spinal cord of male FVB/NJ mice were measured at multiple time points (5 min to 48 h) after a single intraperitoneal injection of either 100 mg/kg body weight MEPB or 50 mg/kg body weight TA. […] Quantitation of MEPB and TA was performed using an API 4000 mass spectrometer (AB SCIEX) equipped with a Prominence Ultra-Fast Liquid Chromatograph (UFLCXR) system (Shimadzu). […]

[
  {
    "compound": "Cc1c(Cl)cccc1Nc1ccccc1C(=O)O [TA, tolfenamic acid]",
    "unit_tag": "h",
    "Tmax": 1
  }
]

====

test: Pharmacokinetics of MEPB and TA in plasma and tissues after a single intraperitoneal injection; type: in vivo, male FVB/NJ mice; settings: male, FVB/NJ, mouse, ip; TA in muscle; single intraperitoneal injection of 50 mg/kg TA
measured_attribute: Tmax (h)

[
  {
    "molecule": "Cc1c(Cl)cccc1Nc1ccccc1C(=O)O [TA, tolfenamic acid]",
    "unit_tag": "h",
    "measured": 1
  }
]

====

test: Pharmacokinetics of MEPB and TA in plasma and tissues after a single intraperitoneal injection; format: in vivo, male FVB/NJ mice; settings: male, FVB/NJ, mouse, ip; TA in muscle; single intraperitoneal injection of 50 mg/kg TA; read-out: Clast (concentration at the last observed time point)

[
  {
    "compound": "Cc1c(Cl)cccc1Nc1ccccc1C(=O)O [TA, tolfenamic acid]",
    "concentration at 8 hr": "119 ng/mL"
  }
]

====

experiment: Pharmacokinetics of MEPB and TA in plasma and tissues after a single intraperitoneal injection; assay type: in vivo, male FVB/NJ mice; details: male, FVB/NJ, mouse, ip; TA in spinal cord; single intraperitoneal injection of 50 mg/kg TA; read-out: Clast (concentration at the last observed time point)

[
  {
    "molecule": "Cc1c(Cl)cccc1Nc1ccccc1C(=O)O [TA, tolfenamic acid]",
    "concentration at 4 hr": "84.6 ng/mL"
  }
]

====

assay: Pharmacokinetics of MEPB and TA in plasma and tissues after a single intraperitoneal injection; assay type: in vivo, male FVB/NJ mice; conditions: male, FVB/NJ, mouse, ip; TA in testis; single intraperitoneal injection of 50 mg/kg TA
measured_attribute: Tmax (h)

[
  {
    "item_smiles": "Cc1c(Cl)cccc1Nc1ccccc1C(=O)O",
    "measured_attribute": "Tmax",
    "measured": 1
  }
]

====

test: Pharmacokinetics of MEPB and TA in plasma and tissues after a single intraperitoneal injection; type: in vivo, male FVB/NJ mice; conditions: male, FVB/NJ, mouse, ip; TA in brain; single intraperitoneal injection of 50 mg/kg TA
measured_attribute: Tmax (h)

[
  {
    "item_smiles": "Cc1c(Cl)cccc1Nc1ccccc1C(=O)O",
    "unit_tag": "h",
    "measured": 1
  }
]

// provenance: patent US11707449B2
